# SYSTEM UNDER TEST: Avi-KRAS G12R (1-169) GppNHp/RAF1 RBD-3xFLAG (52-151) (Homo sapiens, UniProt P01116, G12R)
# Construct: Avi-KRAS G12R (1-169)
# Sequence (P01116 1-169 isoform P01116-2 G12R): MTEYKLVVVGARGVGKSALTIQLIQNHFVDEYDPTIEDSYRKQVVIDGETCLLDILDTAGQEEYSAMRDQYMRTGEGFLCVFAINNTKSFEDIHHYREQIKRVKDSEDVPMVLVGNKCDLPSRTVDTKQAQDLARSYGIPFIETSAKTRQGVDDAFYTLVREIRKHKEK
# PROTOCOL SUMMARY: Raf1-KRAS G12R-GppNHP disruption HTRF assay (Biological Example 1)
# Type: binding
# CONDITION LABEL: KRAS G12R-GppNHp/RAF1 RBD HTRF
pIC50: −log10 of the molar value.
Entries and their pIC50 values follow.

MOLECULE	SYSTEM UNDER TEST	pIC50
CCN(c1nc(OC[C@@]23CCCN2C[C@H](F)C3)nc2c(F)c(-c3ccc(F)c4sc(N)c(C#N)c34)c(C(F)(F)F)cc12)[C@H]1C[C@@H]2COC(=O)N2C1 (atropisomer, axis not shown) [Compound 519]	Avi-KRAS G12R (1-169) GppNHp/RAF1 RBD-3xFLAG (52-151) (Homo sapiens, UniProt P01116, G12R)	> 7.00
COC1C2CN(c3nc(OC[C@@]45CCCN4C[C@H](F)C5)nc4c(F)c(-c5ccc(F)c6sc(N)c(C#N)c56)c(C(F)(F)F)cc34)C1CO2 (stereo partly drawn) [Compound 509]	Avi-KRAS G12R (1-169) GppNHp/RAF1 RBD-3xFLAG (52-151) (Homo sapiens, UniProt P01116, G12R)	6.00 to 7.00
N#Cc1c(N)sc2c(F)ccc(-c3c(C(F)(F)F)cc4c(N5CC6COC[C@H]6C5)nc(OC[C@@]56CCCN5C[C@H](F)C6)nc4c3F)c12 (stereo partly drawn) [Compound 293]	Avi-KRAS G12R (1-169) GppNHp/RAF1 RBD-3xFLAG (52-151) (Homo sapiens, UniProt P01116, G12R)	6.00 to 7.00

---

Entries and their IC50 values follow.
# SYSTEM UNDER TEST: Avi-KRAS WT (1-169) GppNHp/RAF1 RBD-3xFLAG (52-151) (Homo sapiens, UniProt P01116)
# Construct: Avi-KRAS WT (1-169)
# Sequence (P01116 1-169 isoform P01116-2): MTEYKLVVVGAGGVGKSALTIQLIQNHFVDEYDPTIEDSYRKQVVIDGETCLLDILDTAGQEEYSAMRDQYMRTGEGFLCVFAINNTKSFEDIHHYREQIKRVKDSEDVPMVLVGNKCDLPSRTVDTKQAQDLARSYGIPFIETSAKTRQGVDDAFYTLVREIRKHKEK
# PROTOCOL SUMMARY: Raf1-KRAS WT-GppNHP disruption HTRF assay (Biological Example 1)
# Type: binding
# CONDITION LABEL: KRAS WT, GppNHp-loaded; class symbols

MOLECULE	IC50
[2H]C1([2H])OC(=O)N2C[C@@H](N(CC)c3nc(OC[C@@]45CCCN4C[C@H](F)C5)nc4c(F)c(-c5ccc(F)c6sc(N)c(C#N)c56)c(C(F)(F)F)cc34)C[C@H]21 (atropisomer, axis not shown)	< 100 nM
CCN1C[C@H](N(CC)c2nc(OC[C@@]34CCCN3C[C@H](F)C4)nc3c(F)c(-c4ccc(F)c5sc(N)c(C#N)c45)c(C(F)(F)F)cc23)CC1=O (atropisomer, axis not shown)	100 to 1000 nM
CCN(c1nc(OC[C@@]23CCCN2C[C@H](F)C3)nc2c(F)c(-c3ccc(F)c4sc(N)c(C#N)c34)c(C(F)(F)F)cc12)[C@@H]1C[C@@H](C)N(C(=O)C2COC2)C1 (atropisomer, axis not shown)	100 to 1000 nM
CCN(c1nc(OC[C@@]23CCCN2C[C@H](F)C3)nc2c(F)c(-c3ccc(F)c4sc(N)c(C#N)c34)c(C(F)(F)F)cc12)[C@H]1CCN(C(=O)OC2CCN(C(C)=O)C2)C1 (stereo partly shown)	< 100 nM

---

# SYSTEM UNDER TEST: Avi-KRAS WT (2-169) GTP/RAF1 RBD-3xFLAG (51-131) (Homo sapiens)
# Construct: Avi-KRAS WT (2-169)
# PROTOCOL SUMMARY: Raf1-KRAS WT-GTP disruption HTRF assay (Biological Example 3)
# Assay type: binding
# CONDITION LABEL: KRAS WT, GTP-loaded
pIC50: −log10 of the molar value.

COMPOUND	pIC50
CCC(=O)N1CC[C@@H](N(CC)c2nc(OC[C@@]34CCCN3C[C@H](F)C4)nc3c(F)c(-c4ccc(F)c5sc(N)c(C#N)c45)c(C(F)(F)F)cc23)C1	6.00 to 7.00
N#Cc1c(N)sc2c(F)ccc(-c3c(C(F)(F)F)cc4c(N5CC6CC(C5)O6)nc(OC[C@@]56CCCN5C[C@H](F)C6)nc4c3F)c12 [Compound 145]	5.00 to 6.00
CCN(c1nc(OC[C@@]23CCCN2C[C@H](F)C3)nc2c(F)c(-c3ccc(F)c4sc(N)c(C#N)c34)c(C(F)(F)F)cc12)[C@H]1C[C@H](COC)N(C(=O)N2CC(F)C2)C1	5.00 to 6.00
CCN(c1nc(OC[C@@]23CCCN2C[C@H](F)C3)nc2c(F)c(-c3ccc(F)c4sc(N)c(C#N)c34)c(C(F)(F)F)cc12)[C@H]1C[C@H]2CN(C)C(=O)N2C1 (atropisomer, axis not shown; (aS))	≥ 7.00
CCN(c1nc(OC[C@@]23CCCN2C[C@H](F)C3)nc2c(F)c(-c3ccc(F)c4sc(N)c(C#N)c34)c(C(F)(F)F)cc12)[C@H]1CCN(C(=O)[C@@H]2CC2(F)F)[C@H]1C (atropisomer, axis not shown)	5.00 to 6.00
CCN(c1nc(OC[C@@]23CCCN2C[C@H](F)C3)nc2c(F)c(-c3ccc(F)c4sc(N)c(C#N)c34)c(C(F)(F)F)cc12)[C@H]1C[C@H](COC)N(C(=O)[C@@H]2C[C@H]2F)C1 (atropisomer, axis not shown)	6.00 to 7.00
CCN(c1nc(OC[C@@]23CCCN2C[C@H](F)C3)nc2c(F)c(-c3ccc(F)c4sc(N)c(C#N)c34)c(C(F)(F)F)cc12)[C@H]1CCN(C(=O)c2ccon2)[C@@H]1C	6.00 to 7.00
CCN(c1nc(OC[C@@]23CCCN2C[C@H](F)C3)nc2c(F)c(-c3ccc(F)c4sc(N)c(C#N)c34)c(C(F)(F)F)cc12)[C@H]1CCN(C(=O)C2CC2)[C@@H]1COC (atropisomer, axis not shown)	6.00 to 7.00
CCN(c1nc(OC[C@@]23CCCN2C[C@H](F)C3)nc2c(F)c(-c3ccc(F)c4sc(N)c(C#N)c34)c(C(F)(F)F)cc12)[C@H]1C[C@H](COC)N(C(=O)[C@@H]2CC2(F)F)C1 (atropisomer, axis not shown)	6.00 to 7.00
CCN(c1nc(OC[C@@]23CCCN2C[C@H](F)C3)nc2c(F)c(-c3ccc(F)c4sc(N)c(C#N)c34)c(C(F)(F)F)cc12)[C@H]1CCN(C(=O)OC2CCOCC2)[C@@H]1C (atropisomer, axis not shown)	6.00 to 7.00
CC(=O)N1CC[C@H](N(c2nc(OC[C@@]34CCCN3C[C@H](F)C4)nc3c(F)c(-c4ccc(F)c5sc(N)c(C#N)c45)c(C(F)(F)F)cc23)C2CC2)C1 (atropisomer, axis not shown)	5.00 to 6.00
CCN(c1nc(OCC23CCCN2CC(F)C3)nc2c(F)c(-c3ccc(F)c4sc(N)c(C#N)c34)c(C(F)(F)F)cc12)C1CCN(C(=O)c2nc(C)ns2)C1 (stereo not drawn)	5.00 to 6.00
CCN(c1nc(OC[C@@]23CCCN2C[C@H](F)C3)nc2c(F)c(-c3ccc(F)c4sc(N)c(C#N)c34)c(C(F)(F)F)cc12)[C@H]1C[C@H](COC)N(C(=O)OC2COC2)C1 (atropisomer, axis not shown)	6.00 to 7.00
CCN(c1nc(OC[C@@]23CCCN2C[C@H](F)C3)nc2c(F)c(-c3ccc(F)c4sc(N)c(C#N)c34)c(C(F)(F)F)cc12)[C@H]1C[C@H](C)N(C(=O)C2C[C@H]2F)C1 (stereo partly drawn)	6.00 to 7.00
CCN(c1nc(OC[C@@]23CCCN2C[C@H](F)C3)nc2c(F)c(-c3ccc(F)c4sc(N)c(C#N)c34)c(C(F)(F)F)cc12)[C@H]1C[C@@H]2CCCC(=O)N2C1 (atropisomer, axis not shown)	5.00 to 6.00
CCN(c1nc(OC[C@@]23CCCN2C[C@H](F)C3)nc2c(F)c(-c3ccc(F)c4sc(N)c(C#N)c34)c(C(F)(F)F)cc12)[C@H]1CCN(C(=O)c2ccc(C#N)s2)C1 (atropisomer, axis not shown)	5.00 to 6.00
CCN1C[C@@H](N(CC)c2nc(OC[C@@]34CCCN3C[C@H](F)C4)nc3c(F)c(-c4ccc(F)c5sc(N)c(C#N)c45)c(C(F)(F)F)cc23)CC1=O	≥ 7.00
CCN(c1nc(OC[C@@]23CCCN2C[C@H](F)C3)nc2c(F)c(-c3ccc(F)c4sc(N)c(C#N)c34)c(C(F)(F)F)cc12)[C@H]1CCN(C(=O)[C@H]2C[C@H](F)C2)C1 (atropisomer, axis not shown)	6.00 to 7.00
